Each recorded value in this set is attributed to patent US7811599B2.

This listing pairs compounds with measured MIC.
Test system: Fusarium oxysporum
measurementDescription: MIC values of active ingredients (in nutrient liquid)
Type: cell-based
conditionParameters: Table I
experimentalEndpoint: MIC

INSERT INTO assay_data (compound, reading) VALUES
  ('CC[C@H]1OC(=O)[C@H](C)[C@@H](O[C@H]2C[C@@](C)(OC)[C@@H](O)[C@H](C)O2)[C@H](C)[C@@H](O[C@@H]2O[C@H](C)C[C@H](N(C)C)[C@H]2O)[C@](C)(O)C[C@@H](C)C(=O)[C@H](C)[C@@H](O)[C@]1(C)O', '> 500 µg/mL'),
  ('Clc1ccc(COC(Cn2ccnc2)c2ccc(Cl)cc2Cl)c(Cl)c1 (stereo not shown)', '> 8 µg/mL'),
  ('CC[C@H]1OC(=O)[C@H](C)[C@@H](O[C@H]2C[C@@](C)(OC)[C@@H](O)[C@H](C)O2)[C@H](C)[C@@H](O[C@@H]2O[C@H](C)C[C@H](N(C)C)[C@H]2O)[C@](C)(O)C[C@@H](C)CN(C)[C@H](C)[C@@H](O)[C@]1(C)O', '> 500 µg/mL'),
  ('CC[C@H]1OC(=O)[C@H](C)[C@@H](O[C@H]2C[C@@](C)(OC)[C@@H](O)[C@H](C)O2)[C@H](C)[C@@H](O[C@@H]2O[C@H](C)C[C@H](N(C)C)[C@H]2O)[C@](C)(OC)C[C@@H](C)C(=O)[C@H](C)[C@@H](O)[C@]1(C)O', '> 100 µg/mL');
